# Test system: NOMO1
# assayComment: cell viability relative to DMSO control; higher = less cytotoxic
# testConditions: RPMI 5 mM glucose + 10% FBS; 48 h; 1.71 µM

| compound | unitAbbreviation | cell viability |
| --- | --- | --- |
| COc1cc2c(Nc3ccc(Cl)c(Cl)c3F)ncnc2cc1OC[C@@H]1C[C@@H]2CN(C)C[C@@H]2C1 | % | 117 |
| COc1cc2c(Oc3ccc(NC(=O)C4(C(=O)Nc5ccc(F)cc5)CC4)cc3F)ccnc2cc1OCCCN1CCOCC1 | % | 72.8 |
| CC1(C)OC2CC3C4CC(F)C/5=C/C(=O)/C=C\C5(C)C4C(O)CC3(C)[C@@]2(O1)C(=O)CO (stereo partly drawn) | % | 112 |
| N[S+](=O)([O-])c1cc(Cl)c(Cl)c([S+](N)(=O)[O-])c1 | % | 95.3 |
| Cc1ncc(OC[C@@]2(c3cccc(F)c3)C[C@H]2C(=O)Nc2ccc(F)cn2)c(C)n1 | % | 92.2 |
| CC1=C(C=CC=C1)N2\C(=N/C3=C(C(=CC=C3)C)C2=O)C[N]4N=CC5=C4N=CN=C5N | % | 26 |
| CCC(=O)OCC(=O)[C@@]1(OC(=O)CC)[C@@H](C)C[C@H]2[C@@H]3CCC4=CC(=O)C=C[C@]4(C)[C@@]3(F)[C@@H](O)C[C@@]21C | % | 95 |
| CC(C)Nc1cc(C(F)(F)F)cc2nc(NC(=O)c3cccnc3)nn12 | % | 52.6 |

* * *

# Test system: NOMO1
# assayComment: cell viability relative to DMSO control; higher = less cytotoxic
# testConditions: HPLM + 10% dialyzed FBS; 48 h; 0.19 µM
quantityMeasured: cell viability (%)

| compound | quantityMeasured | quantitativeResult |
| --- | --- | --- |
| CN(C/C=C/C#CC(C)(C)C)Cc1cccc2ccccc12 | cell viability | 104 |
| CN1\C(=C(\O)C2=C(C=CS2)[S+]1([O-])=O)C(=O)NC3=CC=CC=N3 | cell viability | 112 |
| O=C(NC[C@H](O)CN1CCc2ccccc2C1)c1cc(NC2COC2)ncn1 | cell viability | 99.2 |
| CC(C)(C)C(=O)OCOP(=O)(COCCn1cnc2c(N)ncnc21)OCOC(=O)C(C)(C)C | cell viability | 62.2 |
| OC(=O)\C1=C\N(C2=CC=C(F)C=C2)C3=C(C=C(F)C(=C3)N4CCNCC4)C1=O | cell viability | 122 |
| CC(=O)OCC(=O)[C@@]12\N=C(C)/O[C@@H]1C[C@H]3[C@@H]4CCC/5=C/C(=O)/C=C\[C@]5(C)[C@H]4[C@@H](O)C[C@]23C | cell viability | 137 |
| CN(C)C(=O)c1ccc([S+](=O)([O-])c2ccc(NC(=O)[C@@](C)(O)C(F)(F)F)c(Cl)c2)cc1 | cell viability | 128 |
| C1CCC(C(CC2CCCCN2)C2CCCCC2)CC1 (configuration not stated) | cell viability | 127 |
| CC(=O)Nc1ccc([C@H](C)C(=O)Nc2ncc(C(C)C)s2)cc1 | cell viability | 103 |
| COc1cc2c(Oc3ccc(NC(=O)C4(C(=O)Nc5ccc(F)cc5)CC4)cc3F)ccnc2cc1OCCCN1CCOCC1 | cell viability | 83.1 |
| CCC[C@H](N[C@@H](C)C(=O)N1[C@H](C(=O)O)C[C@@H]2CCCC[C@@H]21)C(=O)OCC | cell viability | 102 |
| [NH2][Pt]([NH2])([Cl])[Cl] | cell viability | 110 |
| CC(C)(C)C(=O)Oc1ccc([S+](=O)([O-])Nc2ccccc2C(=O)NCC(=O)O)cc1 | cell viability | 110 |
| CC1(C)CCC(=C(CN2CCN(CC2)C3=CC=C(C=C3)C(=O)N[S+]([O-])(=O)C4=CC(=C(N[C@H](CCN5CCOCC5)CSC6=CC=CC=C6)C=C4)[S+]([O-])(=O)C(F)(F)F)\C1)/C7=CC=C(Cl)C=C7 | cell viability | 112 |
| Cn1c(Nc2ccc(C(F)(F)F)cc2)nc2cc(Oc3ccnc(-c4nc(C(F)(F)F)c[nH]4)c3)ccc21 | cell viability | 145 |
| Cc1cc(Nc2nc(N[C@@H](C)c3ncc(F)cn3)ncc2Cl)n[nH]1 | cell viability | 113 |
| OC[C@H]1O[C@H]([C@@H](F)[C@@H]1O)N2\C=C/C(=O)NC2=O | cell viability | 108 |

* * *

# Test system: P12-Ichikawa
# assayComment: cell viability relative to DMSO control; higher = less cytotoxic
# testConditions: HPLM + 10% dialyzed FBS; 48 h; 0.569 µM
Entries annotated with measured cell viability
quantityMeasured: cell viability (%)

| smilesString | subjectOfTest | quantitativeResult |
| --- | --- | --- |
| O=C1\C=C/C[C@@H]2[C@H]3CCCN4CCC[C@@H](CN12)[C@@H]34 | P12-Ichikawa | 98.1 |
| CN(C)C(=O)c1ccc([S+](=O)([O-])c2ccc(NC(=O)[C@@](C)(O)C(F)(F)F)c(Cl)c2)cc1 | P12-Ichikawa | 114 |
| CC1(C)CCC(=C(CN2CCN(CC2)C3=CC=C(C=C3)C(=O)N[S+]([O-])(=O)C4=CC(=C(N[C@H](CCN5CCOCC5)CSC6=CC=CC=C6)C=C4)[S+]([O-])(=O)C(F)(F)F)\C1)/C7=CC=C(Cl)C=C7 | P12-Ichikawa | 20 |

* * *

Entries annotated with measured cell viability
# Test system: SEM cells
# assayComment: cell viability relative to DMSO control; higher = less cytotoxic
# testConditions: RPMI 5 mM glucose + 10% dialyzed FBS; 48 h; 0.000781 µM

| compound | unitAbbreviation | cell viability |
| --- | --- | --- |
| C[N+]1(C)[C@@H]2C[C@@H](OC(=O)[C@H](CO)c3ccccc3)C[C@H]1[C@@H]1O[C@@H]12.[Br-] | % | 77.3 |
| C[C@@H]1COCCN1C\2=C\C(=O)N\3CC[C@H](N(CC4=CN=CC(=C4)Cl)C3=N2)C(F)(F)F | % | 89.6 |
| C[C@@]12O[C@@H](C[C@]1(O)CO)n1c3ccccc3c3c4c(c5c6ccccc6n2c5c31)CNC4=O | % | 118 |
| CC(C)(C)C(=O)OCOP(=O)(COCCn1cnc2c(N)ncnc21)OCOC(=O)C(C)(C)C | % | 86.6 |
| CC(=O)NC(CS)C(=O)O (stereo unspecified) | % | 76.7 |
| CCCCCCCc1ccc(CCc2cccc(O)c2C(=O)O)cc1 | % | 75.5 |

* * *

# System: SEM cells
# assayComment: cell viability relative to DMSO control; higher = less cytotoxic
# testConditions: RPMI 5 mM glucose + 10% FBS; 48 h; 0.569 µM
quantityMeasured: cell viability (%)

| smilesString | quantitativeResult |
| --- | --- |
| C[C@H]1C[C@H]2[C@@H]3CCC4=CC(=O)C=C[C@]4(C)[C@@]3(F)[C@@H](O)C[C@]2(C)[C@@]1(O)C(=O)CO | 66.7 |
| O=C1Nc2ccc(Cl)cc2[C@@](C#CC2CC2)(C(F)(F)F)O1 | 84.4 |
| [NH2][Pt]([NH2])([Cl])[Cl] | 118 |
| Cc1cccc(C#Cc2ccccc2)n1 | 128 |
| O=C(NC[C@H]1CN(c2ccc(N3CCOCC3=O)cc2)C(=O)O1)c1ccc(Cl)s1 | 129 |
| CCn1c(-c2nonc2N)nc2cncc(CNC3CCNCC3)c21 | 120 |
| CC[C@H]1/C=C\C=C/C[C@@H](C)[C@H](O)[C@@](C)(O)C(=O)[C@@H](C)[C@H](O)[C@@H](C)C(=O)[C@@H](C)[C@H](O)[C@@H](C)/C=C/C(=O)O[C@@H]2[C@H](C)[C@H](CC1)O[C@]1(CC[C@H](C)[C@H](C[C@@H](C)O)O1)[C@H]2C | 97.7 |

* * *

# Test system: SEM cells
# assayComment: AUC of viability dose-response curve (% viability x log10 dose units); higher = less sensitive
# testConditions: RPMI 5 mM glucose + 10% dialyzed FBS; 48 h
Entries annotated with measured AUC of viability dose-response curve

| smilesString | AUC of viability dose-response curve |
| --- | --- |
| CCc1c(C(=O)C(N)=O)c2c(OCC(=O)O)cccc2n1Cc1ccccc1 | 461 |
| C[C@H]1C[C@H]2[C@@H]3CCC4=CC(=O)C=C[C@]4(C)[C@@]3(F)[C@@H](O)C[C@]2(C)[C@@]1(O)C(=O)CO | 305 |
| CN1\C(=C(\O)C2=C(C=CS2)[S+]1([O-])=O)C(=O)NC3=CC=CC=N3 | 475 |
| CCOC(=O)[C@H](CCc1ccccc1)N[C@H]1CCc2ccccc2N(CC(=O)O)C1=O | 459 |
| CC(C)Nc1cc(-c2c[nH]c(C(=O)N[C@H](CO)c3cccc(Cl)c3)c2)c(Cl)cn1 | 400 |
| CC1(C)C(=O)N(CCN2CCC(C(=O)c3ccc(F)cc3)CC2)c2ccccc21 | 471 |
| COc1cc2c(Oc3ccc(NC(=O)C4(C(=O)Nc5ccc(F)cc5)CC4)cc3F)ccnc2cc1OCCCN1CCOCC1 | 105 |
| COc1cc2c(Nc3ccc(Cl)c(Cl)c3F)ncnc2cc1OC[C@@H]1C[C@@H]2CN(C)C[C@@H]2C1 | 379 |
